This collection of values is drawn from patent US20200038399A1.

- Test system: S. aureus 101
- test-description: MIC determination
- Type: cell-based, Staphylococcus aureus
- run-parameters: Staphylococcus aureus, 101, 18 h; read-out: Minimum inhibitory concentrations (MIC)
Each entry below carries its recorded MIC.
quantity: MIC

1) COc1cc(Cc2cnc(N)nc2N)cc(OC)c1OC
> 128 mg/L
2) NC[C@H]1O[C@H](O[C@H]2[C@H](O)[C@@H](O[C@H]3O[C@H](CO)[C@@H](O)[C@H](N)[C@H]3O)[C@H](N)C[C@@H]2N)[C@H](N)C[C@@H]1O
> 128 mg/L
3) CCN1CCN(C(=O)N[C@@H](C(=O)N[C@@H]2C(=O)N3[C@@H]2SC(C)(C)[C@@H]3C(=O)O)c2ccccc2)C(=O)C1=O
> 128 mg/L

---

Items are presented alongside their recorded MIC.
- Tested on: S. pneumoniae 1/1
- test-description: MIC determination
- Assay type: cell-based, Streptococcus pneumoniae
- run-parameters: Streptococcus pneumoniae; S. pneumoniae 1/1; 18 hours at 37° C., 5% CO2; read-out: Minimum inhibitory concentrations (MIC)
Positions of bridges follow the written chain, without caps; N, C: chain ends. Non-standard residues stand in square brackets, D forms with d. Residues, ends and D or L forms follow the SMILES beside them. *: point of attachment. Ileψ(thiazoline)Cys = CC[C@H](C)[C@H](N)C1=N[C@H](C(=O)*)CS1; dOrn = NCCC[C@@H](N)C(=O)O
quantity: MIC (µg/mL)

1) CC[C@H](C)[C@H](N)C1=N[C@H](C(=O)N[C@@H](CC(C)C)C(=O)N[C@H](CCC(=O)O)C(=O)N[C@H](C(=O)N[C@H]2CCCCNC(=O)[C@H](CC(N)=O)NC(=O)[C@@H](CC(=O)O)NC(=O)[C@H](Cc3cnc[nH]3)NC(=O)[C@@H](Cc3ccccc3)NC(=O)[C@H]([C@@H](C)CC)NC(=O)[C@@H](CCCN)NC2=O)[C@@H](C)CC)CS1 [Bacitracin] ({Ileψ(thiazoline)Cys}-L[dE]IK[dOrn]I[dF]H[dD]N; lactam 4-C)
8
2) NC[C@H]1O[C@H](O[C@H]2[C@H](O)[C@@H](O[C@H]3O[C@H](CO)[C@@H](O)[C@H](N)[C@H]3O)[C@H](N)C[C@@H]2N)[C@H](O)[C@@H](O)[C@@H]1O
128
3) COc1cc(Cc2cnc(N)nc2N)cc(OC)c1OC
128
4) CCN1CCN(C(=O)N[C@@H](C(=O)N[C@@H]2C(=O)N3[C@@H]2SC(C)(C)[C@@H]3C(=O)O)c2ccccc2)C(=O)C1=O
8
5) CO[C@@H]1[C@@H](OC(N)=O)[C@@H](O)[C@H](Oc2ccc3c(O)c(NC(=O)c4ccc(O)c(CC=C(C)C)c4)c(=O)oc3c2C)OC1(C)C
4
6) CC[C@H]1OC(=O)[C@H](C)[C@@H](O[C@H]2C[C@@](C)(OC)[C@@H](O)[C@H](C)O2)[C@H](C)[C@@H](O[C@@H]2O[C@H](C)C[C@H](N(C)C)[C@H]2O)[C@](C)(O)C[C@@H](C)C(=O)[C@H](C)[C@@H](O)[C@]1(C)O
0.125
7) NC[C@H]1O[C@H](O[C@H]2[C@H](O)[C@@H](O[C@H]3O[C@H](CO)[C@@H](O)[C@H](N)[C@H]3O)[C@H](N)C[C@@H]2N)[C@H](N)C[C@@H]1O
32
8) COc1cc(Cc2cnc(N)nc2N)c2c(c1OC)OC(C1CC1)C=C2 (racemic)
1
9) O=C(N[C@H](CO)[C@H](O)c1ccc([N+](=O)[O-])cc1)C(Cl)Cl
16
10) CC[C@H]1OC(=O)[C@H](C)[C@@H](O[C@H]2C[C@@](C)(OC)[C@@H](O)[C@H](C)O2)[C@H](C)[C@@H](O[C@@H]2O[C@H](C)C[C@H](N(C)C)[C@H]2O)[C@](C)(O)C[C@@H](C)/C(=N\OCOCCOC)[C@H](C)[C@@H](O)[C@]1(C)O
0.5
11) CCn1cc(C(=O)O)c(=O)c2cc(F)c(N3CCNCC3)cc21
4
